target: TYK2 (Homo sapiens, UniProt P29597); construct: Degradation of TYK2 in cells was quantitatively measured using Meso Scale Discovery (MSD) technology; endogenous in cells; host or cells: OCI-LY10; assay: TYK2 MSD degradation in OCI-LY10 cells; format: cell-based; conditions: TYK2 degradation in OCI-LY10 cells, 4 to 24 hours incubation
Sequence (P29597 whole entry): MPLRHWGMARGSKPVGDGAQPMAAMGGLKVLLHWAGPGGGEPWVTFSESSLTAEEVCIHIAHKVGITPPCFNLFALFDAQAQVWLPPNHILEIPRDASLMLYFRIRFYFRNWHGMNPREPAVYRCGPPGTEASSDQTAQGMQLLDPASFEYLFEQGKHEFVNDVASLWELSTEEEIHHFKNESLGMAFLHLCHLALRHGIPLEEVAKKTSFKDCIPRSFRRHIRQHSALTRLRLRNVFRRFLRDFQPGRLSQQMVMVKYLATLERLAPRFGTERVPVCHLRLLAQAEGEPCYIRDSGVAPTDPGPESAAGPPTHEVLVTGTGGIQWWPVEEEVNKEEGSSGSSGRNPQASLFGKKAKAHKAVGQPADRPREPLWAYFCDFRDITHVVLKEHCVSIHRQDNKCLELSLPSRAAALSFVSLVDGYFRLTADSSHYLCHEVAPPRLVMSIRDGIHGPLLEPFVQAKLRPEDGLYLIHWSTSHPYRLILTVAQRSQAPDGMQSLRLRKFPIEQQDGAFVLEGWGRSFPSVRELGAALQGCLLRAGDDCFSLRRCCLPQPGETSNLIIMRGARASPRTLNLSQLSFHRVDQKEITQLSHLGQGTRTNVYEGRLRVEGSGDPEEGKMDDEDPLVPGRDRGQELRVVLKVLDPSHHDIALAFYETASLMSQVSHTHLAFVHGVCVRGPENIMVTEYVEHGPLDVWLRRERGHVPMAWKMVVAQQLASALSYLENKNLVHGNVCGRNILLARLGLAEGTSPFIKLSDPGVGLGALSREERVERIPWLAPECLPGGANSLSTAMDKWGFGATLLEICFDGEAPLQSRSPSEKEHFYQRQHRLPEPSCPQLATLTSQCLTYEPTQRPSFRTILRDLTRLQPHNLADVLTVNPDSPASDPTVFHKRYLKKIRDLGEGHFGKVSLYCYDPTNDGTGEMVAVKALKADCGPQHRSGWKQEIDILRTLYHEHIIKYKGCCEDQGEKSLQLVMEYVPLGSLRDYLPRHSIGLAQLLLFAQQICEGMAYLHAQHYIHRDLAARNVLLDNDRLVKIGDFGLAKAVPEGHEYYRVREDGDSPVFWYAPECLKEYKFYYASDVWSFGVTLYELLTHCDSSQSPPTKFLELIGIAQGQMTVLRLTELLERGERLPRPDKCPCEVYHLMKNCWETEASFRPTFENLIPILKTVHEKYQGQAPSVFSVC

{"Compound": "CNc1cc(N2CCc3c(-c4ccc(CC5CN(C6CCN(C7CCN(c8ccc9c(c8)n(C)c(=O)n9C8CCC(=O)NC8=O)CC7)CC6(F)F)C5)cn4)cccc32)nn2c(C(=O)N[C@@H]3C[C@@H]3F)cnc12 (stereo partly drawn) [I-359]", "TYK2 MSD OCI-LY10 Dmax %": "B (B (90 to >75%))"}
{"Compound": "CNc1cc(N2CCc3c(-c4ccc(CN5CCC(N6CC(N7CCN(c8cccc9c8n(C)c(=O)n9C8CCC(=O)NC8=O)CC7)C6)C(F)(F)C5)cn4)cccc32)nn2c(C(=O)N[C@@H]3C[C@@H]3F)cnc12 (stereo partly drawn) [I-277]", "TYK2 MSD OCI-LY10 Dmax %": "B (B (90 to >75%))"}

---

biological target: TYK2 (Homo sapiens, UniProt P29597); construct: Degradation of TYK2 in cells was quantitatively measured using Meso Scale Discovery (MSD) technology; endogenous in cells; host or cells: OCI-LY10; assay: TYK2 MSD degradation in OCI-LY10 cells; format: cell-based; settings: TYK2 degradation in OCI-LY10 cells, 4 to 24 hours incubation, read-out: TYK2 MSD OCI-LY10 Rel-DC50
Quantity Measured: DC50

Use the examples below as a reference point.
{"Compound": "CNc1cc(N2CCc3c([C@H](C)N4CC[C@H](N5CCC6(CCN(C(=O)c7cc(C)c(Cl)c(N8CCC(=O)NC8=O)c7)CC6)CC5)C(F)(F)C4)cccc32)nn2c(C(=O)N[C@@H]3CC[C@H]3OC)cnc12", "Quantity Measured": "DC50", "Obs Value": "< 1 nM"}
{"Compound": "CNc1cc(N2CCc3c(CN4CCC(N5CCC6(CCN(C(=O)c7cc(C)c(Cl)c(N8CCC(=O)NC8=O)c7)CC6)CC5)C(F)(F)C4)cc(F)cc32)nn2c(C(=O)N[C@@H]3CC[C@H]3OC)cnc12 (stereo partly drawn)", "Quantity Measured": "DC50", "Obs Value": "< 1 nM"}

Would you kindly look at the next entry?
Name the value of DC50 reported for `CNc1cc(N2CCc3c(-c4cc(N5CCC6(CCN(C(=O)c7ccc(Cl)c(N8CCC(=O)NC8=O)c7)CC6)CC5)ccn4)cccc32)nn2c(C(=O)N[C@@H]3C[C@@H]3F)cnc12` when tested on TYK2 (Homo sapiens, UniProt P29597).
< 10 nM

---

target: TYK2 (Homo sapiens); construct: Degradation of TYK2 in cells was quantitatively measured using Meso Scale Discovery (MSD) technology; endogenous in cells; host or cells: OCI-LY10; test: TYK2 MSD degradation in OCI-LY10 cells; format: cell-based; conditions: TYK2 degradation in OCI-LY10 cells, 4 to 24 hours incubation
Quantity Measured: TYK2 MSD OCI-LY10 Dmax %

Use the examples below as a reference point.
{"Compound": "CNc1cc(N2CCc3c(-c4ccc(CN5CC6(CCN(C(=O)c7ccc(C(F)F)c(N8CCC(=O)NC8=O)c7)CC6(F)F)C5)cn4)cccc32)nn2c(C(=O)N[C@@H]3C[C@@H]3F)cnc12", "TYK2 MSD OCI-LY10 Dmax %": "C (C (75 to 50%))"}
{"Compound": "CNc1cc(N2CCc3c(-c4ccc(CN5CC6(CCN(C(=O)c7ccc(Cl)c(N8CCC(=O)NC8=O)c7)CC6(F)F)C5)cn4)cc(C(F)(F)F)cc32)nn2c(C(=O)N[C@@H]3C[C@@H]3F)cnc12", "TYK2 MSD OCI-LY10 Dmax %": "C (C (75 to 50%))"}
{"Compound": "CNc1cc(N2CCc3c(-c4ccc(CN5CCC(N6CCC(COc7ccc(Cl)c(N8CCC(=O)NC8=O)c7)CC6)CC5)cn4)cccc32)nn2c(C(=O)NC3CCC3OC)cnc12 (centres unmarked)", "TYK2 MSD OCI-LY10 Dmax %": "B (B (90 to >75%))"}
{"Compound": "CNc1cc(-c2ccc(-c3ccc(CN4CC5(CCN(C(=O)c6ccc(Cl)c(N7CCC(=O)NC7=O)c6)CC5(F)F)C4)cn3)cc2)nn2c(C(=O)N[C@@H]3C[C@@H]3F)cnc12", "TYK2 MSD OCI-LY10 Dmax %": "B (B (90 to >75%))"}
{"Compound": "CNc1cc(N2CCc3c(CN4CCC(N5CCC(CC#Cc6ccc7c(c6)n(C)c(=O)n7C6CCC(=O)NC6=O)CC5)C(F)(F)C4)cccc32)nn2c(C(=O)N[C@@H]3C[C@@H]3F)cnc12 (some centres unmarked)", "TYK2 MSD OCI-LY10 Dmax %": "D (D (<50%))"}

Hey, can you go through the list below and give me TYK2 MSD OCI-LY10 Dmax % for every item?
1. CNc1cc(N2CCc3c(-c4ncc(CN5CC6(CCN(C(=O)c7cc(C)c(Cl)c(N8CCC(=O)NC8=O)c7)CC6(F)F)C5)cc4F)cccc32)nn2c(C(=O)NC3CC3)cnc12
2. CNc1cc(N2CCc3c(-c4ncc(CN5CC6(CCN(C(=O)c7cc(C)c(Cl)c(N8CCC(=O)NC8=O)c7)CC6(F)F)C5)cc4F)cccc32)nn2c(C(=O)NC3CCC3)cnc12
3. CNc1cc(N2CCc3c(-c4ccc(CN5CCC(N6CCN(CCc7ccc(Cl)c(C8CCC(=O)NC8=O)c7)CC6)C(F)(F)C5)cn4)cccc32)nn2c(C(=O)NC3CC3F)cnc12 (centres unmarked)
4. CNc1cc(N2CC3(CCN(Cc4cccc5c4n(C)c(=O)n5C4CCC(=O)NC4=O)CC3)c3ccccc32)nn2c(C(=O)NC3CC3)cnc12 (centres unmarked)

1. B (B (90 to >75%))
2. B (B (90 to >75%))
3. B (B (90 to >75%))
4. D (D (<50%))

Specify TYK2 MSD OCI-LY10 Dmax % for COC1(c2cc(C)cc(-c3cn(CCC4CCN(C5CCN(c6cc(F)c(C7CCC(=O)NC7=O)c(F)c6)CC5)CC4)c4cnc(NC(C)=O)cc34)n2)CCOC1 (centres unmarked) and stop.
B (B (90 to >75%))
